Data credit: patent US8710077B2

assayed target: human recombinant ROCK II (Homo sapiens, UniProt O75116)
Construct: recombinant human ROCK-II residues 11-552; His6 (N); purchased Upstate Ltd., Dundee, UK
Sequence (O75116 11-552): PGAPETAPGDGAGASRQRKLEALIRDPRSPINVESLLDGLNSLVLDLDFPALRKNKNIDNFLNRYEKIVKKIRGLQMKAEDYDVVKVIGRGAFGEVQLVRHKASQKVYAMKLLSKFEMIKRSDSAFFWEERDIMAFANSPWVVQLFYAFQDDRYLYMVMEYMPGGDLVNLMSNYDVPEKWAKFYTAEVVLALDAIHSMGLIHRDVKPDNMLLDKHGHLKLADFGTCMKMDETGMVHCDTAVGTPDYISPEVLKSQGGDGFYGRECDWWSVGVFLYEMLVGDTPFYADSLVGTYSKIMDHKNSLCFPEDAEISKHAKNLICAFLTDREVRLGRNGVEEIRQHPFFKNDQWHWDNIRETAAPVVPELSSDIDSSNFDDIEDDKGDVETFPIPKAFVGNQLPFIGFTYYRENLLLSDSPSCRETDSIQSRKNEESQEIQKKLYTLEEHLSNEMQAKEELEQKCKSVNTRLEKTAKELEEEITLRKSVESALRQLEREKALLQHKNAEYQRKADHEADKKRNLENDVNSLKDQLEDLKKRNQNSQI
assay notes: Determination of Rho Kinase Inhibition (Caliper peptide phosphorylation assay)
Format: biochemical
settings: ROCK II residues 11-552, 60 min at 32° C., compound in the form (salt or free base) obtained in the examples
measurement type: IC50

The cases that follow already have their IC50 on record.
N[C@]1(C2CC2)CC[C@H](Oc2cc3cc[nH]c(=O)c3cc2Cl)CC1 [Compound 41]    ≤ 1 µM
NC1(CC(O)CO)CCC(Oc2cc3cc[nH]c(=O)c3cc2Cl)CC1 (mixture of isomers) [Compound 57]    ≤ 1 µM
NCC1(c2ccc(Cl)c(Cl)c2)CCC(Oc2cc3cc[nH]c(=O)c3cc2Cl)CC1 (stereo not shown) [Compound 116]    ≤ 1 µM

Provide measured IC50 value, entry: Cc1cccc(C2(CN)CCC(Oc3cc4cc[nH]c(=O)c4cc3Cl)CC2)c1 (stereo not shown) [Compound 111] 1 to 10 µM
